biological target: HDAC1 (Homo sapiens (Human)); assay: HDAC enzyme assay, HDAC1; format: biochemical; conditions: 24 hours pre-incubation with enzyme; read-out: IC50 (nM) HDAC1
result.type: IC50 (nM)

CCC1(Nc2ccc(C(=O)Nc3cc(-c4cccs4)ccc3N)cc2)CCN(C(=O)N2CCNCC2)CC1 [Compound 023] :: 3.9
CC1(Nc2ccc(C(=O)Nc3cc(-c4cccs4)ccc3N)cc2)CCN(C(=O)N2CCNCC2)CC1 [Compound 015] :: 3.2

a: Nc1ccc(-c2ccncc2)cc1NC(=O)c1ccc(NC2CCN(C(=O)N3CCCC3)CC2)cc1 [Compound 032]
b: Nc1ccc(-c2cccs2)cc1NC(=O)c1cnc(NC2CCN(c3ccccc3)CC2)nc1 [Compound 027]
Please indicate which entry, a or b , has the lower recorded IC50 value. Your choice should be expressed through its label. a
(a: 17 nM, b: 121 nM)

###

molecular target: HDAC2 (Homo sapiens (Human), UniProt Q92769); experiment: HDAC enzyme assay, HDAC2; format: biochemical; conditions: reference compound; read-out: IC50 for HDAC2
Sequence (Q92769 whole entry): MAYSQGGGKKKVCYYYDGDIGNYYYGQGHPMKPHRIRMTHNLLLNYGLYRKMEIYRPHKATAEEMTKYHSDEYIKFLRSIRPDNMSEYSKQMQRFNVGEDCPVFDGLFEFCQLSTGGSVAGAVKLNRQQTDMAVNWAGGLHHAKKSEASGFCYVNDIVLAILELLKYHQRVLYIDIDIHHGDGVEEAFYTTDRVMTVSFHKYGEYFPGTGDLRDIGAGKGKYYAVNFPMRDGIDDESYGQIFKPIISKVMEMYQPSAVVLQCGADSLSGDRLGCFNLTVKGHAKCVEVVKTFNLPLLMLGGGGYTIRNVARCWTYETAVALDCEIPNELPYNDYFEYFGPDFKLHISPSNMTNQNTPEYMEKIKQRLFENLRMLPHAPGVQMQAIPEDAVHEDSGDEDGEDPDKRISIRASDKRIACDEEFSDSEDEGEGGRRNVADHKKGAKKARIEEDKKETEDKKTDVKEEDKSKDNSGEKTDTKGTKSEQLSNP
pIC50: −log10 of the molar value.
result.type: pIC50

Using the record for Nc1ccc(-c2cccs2)cc1NC(=O)c1ccc2nc(N3CCNCC3)ccc2c1 [Compound A, reference compound] , report its pIC50. ~7.82

###

biological target: HDAC2 (Homo sapiens (Human)); assay: HDAC enzyme assay, HDAC2; type: biochemical; conditions: 24 hours pre-incubation with enzyme; read-out: IC50 (nM) HDAC2
result.type: IC50 (nM)

Illustrative cases are given below, each with its answer.
CC1(Nc2ncc(C(=O)Nc3cc(-c4cccs4)ccc3N)cn2)CCN(C(=O)N2CCC(F)(F)CC2)CC1 [Compound 012] :: 177
Nc1ccc(-c2ccccc2)cc1NC(=O)c1cnc(NC2CCNCC2)nc1 [Compound 039] :: 59
CC1(Nc2ncc(C(=O)Nc3cc(-c4cccs4)ccc3N)cn2)CCN(C(=O)Oc2ccccc2)CC1 [Compound 007] :: 703
CC(C)NC(=O)N1CCC(C)(Nc2ncc(C(=O)Nc3cc(-c4cccs4)ccc3N)cn2)CC1 [Compound 001] :: 38
Nc1ccc(-c2cccs2)cc1NC(=O)c1cnc(NC2CCN(c3ccccc3)CC2)nc1 [Compound 027] :: 690

A: CC1(Nc2ncc(C(=O)Nc3cc(-c4cccs4)ccc3N)cn2)CCN(C(=O)N2CCC(O)CC2)CC1 [Compound 014]
B: Cc1[nH]c2ccccc2c1CC(=O)N1CCC(N(c2ccccc2)c2ncc(C(=O)Nc3cc(-c4ccccc4)ccc3N)cn2)CC1 [Compound 036]
Of A and B , which carries the smaller reported IC50 figure? Select an item and report its label. A

###

molecular target: HDAC1 (Homo sapiens (Human), UniProt Q13547); test: HDAC enzyme assay, HDAC1; assay type: biochemical; conditions: 24 hours pre-incubation with enzyme; read-out: IC50 (nM) HDAC1
Sequence (Q13547 whole entry): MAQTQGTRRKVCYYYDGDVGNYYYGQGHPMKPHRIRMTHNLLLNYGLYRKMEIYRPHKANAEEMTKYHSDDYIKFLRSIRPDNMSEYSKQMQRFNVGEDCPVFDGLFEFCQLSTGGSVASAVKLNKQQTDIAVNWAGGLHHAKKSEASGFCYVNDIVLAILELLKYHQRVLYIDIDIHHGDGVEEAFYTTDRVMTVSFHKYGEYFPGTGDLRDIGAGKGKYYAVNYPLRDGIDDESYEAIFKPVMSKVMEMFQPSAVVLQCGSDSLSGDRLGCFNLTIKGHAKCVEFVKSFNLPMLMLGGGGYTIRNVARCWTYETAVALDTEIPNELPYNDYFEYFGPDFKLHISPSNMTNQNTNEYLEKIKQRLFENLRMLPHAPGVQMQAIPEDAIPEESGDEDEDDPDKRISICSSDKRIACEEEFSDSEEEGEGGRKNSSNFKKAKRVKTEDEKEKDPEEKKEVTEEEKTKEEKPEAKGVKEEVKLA
result.type: IC50 (nM)

CN1CCN(C(=O)N2CCC(C)(Nc3ncc(C(=O)Nc4cc(-c5cccs5)ccc4N)cn3)CC2)CC1 [Compound 011] :: 8.5
CC1(Nc2ccc(C(=O)Nc3cc(-c4ccccc4)ccc3N)cc2C2CC2)CCN(C(=O)N2CCOCC2)CC1 [Compound 037] :: 432
Nc1ccc(-c2ccccc2)cc1NC(=O)c1cnc(N(c2ccccc2)C2CCN(C(=O)Cc3c[nH]c4ccccc34)CC2)nc1 [Compound 034] :: 93
CN1CCN(C(=O)N2CCC(Nc3ccc(C(=O)Nc4cc(-c5cccs5)ccc4N)cc3)CC2)CC1 [Compound 005] :: 1.2
CC1(Nc2ncc(C(=O)Nc3cc(-c4cccs4)ccc3N)cn2)CCN(C(=O)N2CCOCC2)CC1 [Compound 008] :: 9

A: Nc1ccc(-c2cccs2)cc1NC(=O)c1ccc(NC2CCN(C(=O)N3CCCC3)CC2)cc1 [Compound 006]
B: Cc1[nH]c2ccccc2c1CC(=O)N1CCC(N(c2ccccc2)c2ncc(C(=O)Nc3cc(-c4ccccc4)ccc3N)cn2)CC1 [Compound 036]
C: CC1(Nc2ccc(C(=O)Nc3cc(-c4ccncc4)ccc3N)cc2)CCN(C(=O)N2CCCC2)CC1 [Compound 030]
D: CC1(Nc2ncc(C(=O)Nc3cc(-c4cccs4)ccc3N)cn2)CCN(C(=O)Oc2ccccc2)CC1 [Compound 007]
E: Nc1ccc(-c2cccs2)cc1NC(=O)c1cnc(N2CCCC23CCN(C(=O)N2CCCC2)CC3)nc1 [Compound 018]
List these items ordered by IC50, big to small. API: response body holds the labels in the requested order. D, B, E, C, A
(D: 118 nM, B: 74 nM, E: 12 nM, C: 7.1 nM, A: 4.7 nM)

a: Nc1ccc(-c2cccs2)cc1NC(=O)c1ccc(NC2CCN(C(=O)C3(O)CCCCC3)CC2)cc1 [Compound 024]
b: Nc1ccc(-c2cccs2)cc1NC(=O)c1ccc(NC2CCN(C(=O)N3CCOCC3)CC2)cc1 [Compound 020]
c: CC1(Nc2ncc(C(=O)Nc3cc(-c4cccs4)ccc3N)cn2)CCN(C(=O)N2CCC(O)CC2)CC1 [Compound 014]
// sort entries: IC50, high to low Give me the labels in the order the question wants. c, a, b
(c: 63 nM, a: 6 nM, b: 3.7 nM)
